The origin of these recorded values is patent US11286268B1.

# target-or-test-system: recombinant eIF4E (Homo sapiens (Human), UniProt P06730)
# Sequence (P06730 whole entry): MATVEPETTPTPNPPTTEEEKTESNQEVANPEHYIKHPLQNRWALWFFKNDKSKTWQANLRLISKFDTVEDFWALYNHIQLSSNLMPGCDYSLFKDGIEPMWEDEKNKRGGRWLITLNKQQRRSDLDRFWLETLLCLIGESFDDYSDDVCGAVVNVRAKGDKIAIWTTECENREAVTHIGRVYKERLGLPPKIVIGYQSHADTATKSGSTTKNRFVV
# method-notes: Fluorescence polarization competition assay for eIF4E binding potency
# measurement-context: fluorescence polarization competition, 75 nM recombinant eIF4E, 20 nM EDA-m7GDP-ATTO-550; IC50 class; read-out: elF4E FP
# Method: Compounds were screened for eIF4E binding potency using a fluorescence polarization competition assay. All binding reactions were performed in fluorescence polarization buffer (FPB) containing 20 mM Tris pH 7.5, 100 mM NaCl, 1 mM DTT, and 0.02% Tween-20. Final binding reactions contained 75 nM recombinant eIF4E (Beryllium, custom order), 20 nM EDA-m^7GDP-ATTO-550 (Jena Bioscience, NU-827-550) and varying concentrations of the inhibitory compound of interest. […]
pIC50: −log10 of the molar value.
I'd appreciate it if you could supply pIC50 values for the items below.

What does the data say about its pIC50? Entry: CC(=O)Nc1ccc(-c2cc(Cl)ccc2OCCn2cnc3cnc(C#N)cc3c2=O)cc1C(=O)O
6.00 to 7.30

Same question, Cc1cc(-c2c(C(F)(F)F)cc3nc(C)n(CCOc4ccc(Cl)cc4-c4cc(C)nc5c(C(=O)O)csc45)c(=O)c3c2C#N)c(F)cn1 this time
> 7.30

Further, for Cc1cc(-c2cc(Cl)ccc2OCCn2c(C)nc3cc(C(F)(F)F)c(N4CCN(C)CC4)nc3c2=O)c2scc(C(=O)O)c2n1 ?
> 7.30

###

# target-or-test-system: recombinant eIF4E (Homo sapiens (Human))
# method-notes: Fluorescence polarization competition assay for eIF4E binding potency
# measurement-context: fluorescence polarization competition, 75 nM recombinant eIF4E, 20 nM EDA-m7GDP-ATTO-550; IC50 class; read-out: elF4E FP
# Experimental: Compounds were screened for eIF4E binding potency using a fluorescence polarization competition assay. All binding reactions were performed in fluorescence polarization buffer (FPB) containing 20 mM Tris pH 7.5, 100 mM NaCl, 1 mM DTT, and 0.02% Tween-20. Final binding reactions contained 75 nM recombinant eIF4E (Beryllium, custom order), 20 nM EDA-m^7GDP-ATTO-550 (Jena Bioscience, NU-827-550) and varying concentrations of the inhibitory compound of interest. […]
pIC50: −log10 of the molar value.
Exercise: for every item that follows, state its recorded pIC50.

Recorded pIC50 for Cc1cc(-c2cc(Cl)ccc2OCCn2c(C)nc3c(F)cc(C(F)F)c(C#N)c3c2=O)c2scc(C(=O)NS(C)(=O)=O)c2n1 , please?
> 7.30

Item: Cc1nc2c(C#N)ccc(C#N)c2c(=O)n1CCOc1ccc(Cl)cc1-c1ccnc2c(C(=O)O)csc12
6.00 to 7.30

Next: Cc1cc(-c2cc(Cl)ccc2OCCn2c(C)nc3c(C)nc(-c4cc(Cl)ccc4F)c(C#N)c3c2=O)c2scc(C(=O)O)c2n1
> 7.30

###

# target-or-test-system: recombinant eIF4E (Homo sapiens (Human))
# method-notes: Fluorescence polarization competition assay for eIF4E binding potency
# measurement-context: inhibition of eIF4E/EDA-m7GDP-ATTO-550 binding by 50%; Table 4B calculated values; read-out: IC50
So I've got a bunch of molecules here, and I need their IC50 values.
Give just the number in nM; leave the unit off.

I would be grateful if you could share the reported IC50 for Cc1cc(-c2c(C(F)(F)F)cc3nc(C)n(CCOc4ccc(Cl)cc4-c4cc(C)nc5c(C(=O)O)csc45)c(=O)c3c2C#N)cnn1 .
17.7

What do we get for Cc1ncc(-c2cc(Cl)ccc2OCCn2c(C)nc3cnc(C4CC4)c(C#N)c3c2=O)c2scc(C(=O)O)c12 ?
11.2

Try this molecule next: Cc1cc(-c2cc(Cl)ccc2OCCn2c(C)nc3cc(C(F)(F)F)c(CC4CN(C)C4)c(C#N)c3c2=O)c2scc(C(=O)O)c2n1
11.2

Now consider Cc1cc(-c2cc(Cl)ccc2OCCn2c(C)nc3cc(C(F)(F)F)c(-c4ccccn4)nc3c2=O)c2scc(C(=O)O)c2n1 .
10.5

Again, but for Cc1nc2cc(C#N)c(F)c(C#N)c2c(=O)n1CCOc1ccc(Cl)cc1-c1ccnc2c(C(=O)O)csc12
9.78

And Cc1cc(-c2cc(Cl)ccc2OCCn2c(C)nc3cc(Cl)c(N4CCCC4=O)c(C#N)c3c2=O)c2scc(C(=O)O)c2n1 ?
10.2

Now consider Cc1c(CCOc2ccc(Cl)cc2-c2ccnc3c(C(=O)O)csc23)c(=O)c2c(C#N)c(Cl)c(C(F)(F)F)cc2n1C .
68.4

Another molecule: Cc1nc2cc(C(F)(F)F)c(CCN(C)C)cc2c(=O)n1CCOc1ccc(Cl)cc1-c1ccnc2c(C(=O)O)csc12
7.28

What about this molecule? Cc1nc2cnc(N3CCN(CC(C)(F)CF)CC3)c(C#N)c2c(=O)n1CCOc1ccc(Cl)cc1-c1ccnc2c(C(=O)O)csc12 (centres unmarked)
26.7

Proceed to CNc1ncc(-c2cc(Cl)ccc2OCCn2cnc3cnc(C#N)cc3c2=O)nc1C(=O)O
1680

// next record Cc1nc2cc(C(F)(F)F)cc(C#N)c2c(=O)n1CCOc1ccc(Cl)cc1-c1ccnc2c(C(C)(C)O)csc12
1270

Try O=C(O)c1cccc(-c2cc(Cl)ccc2OCCn2cnc3cnc(-n4cccn4)cc3c2=O)c1 next.
199

Now give it for Cc1nc2cncc(C#N)c2c(=O)n1CCOc1ccc(Cl)cc1-c1ccnc2c(C(=O)O)csc12 too.
50

One more molecule: Cc1nc2cnc(-c3ccncc3)c(C#N)c2c(=O)n1CC#Cc1ccc(Cl)cc1-c1ccnc2c(C(=O)O)csc12
14

###

# target-or-test-system: recombinant eIF4E (Homo sapiens (Human), UniProt P06730)
# method-notes: Fluorescence polarization competition assay for eIF4E binding potency
# measurement-context: fluorescence polarization competition, 75 nM recombinant eIF4E, 20 nM EDA-m7GDP-ATTO-550; IC50 class; read-out: elF4E FP
# Description: Compounds were screened for eIF4E binding potency using a fluorescence polarization competition assay. All binding reactions were performed in fluorescence polarization buffer (FPB) containing 20 mM Tris pH 7.5, 100 mM NaCl, 1 mM DTT, and 0.02% Tween-20. Final binding reactions contained 75 nM recombinant eIF4E (Beryllium, custom order), 20 nM EDA-m^7GDP-ATTO-550 (Jena Bioscience, NU-827-550) and varying concentrations of the inhibitory compound of interest. […]
pIC50: −log10 of the molar value.
measured-quantity: pIC50

So what's the measured pIC50 for this one? Cc1cc(-c2cc(Cl)ccc2OCCn2c(C)nc3cc(Cl)c(N4CC(C)(C)C4)c(C#N)c3c2=O)c2scc(C(=O)O)c2n1
> 7.30

Can you handle Cc1cc(-c2cc(Cl)ccc2OCCn2c(C)nc3c(C)nc(-c4cccc(F)c4)c(C#N)c3c2=O)c2scc(C(=O)O)c2n1 next?
> 7.30

Next compound up: Cc1cc(-c2cc(Cl)ccc2OCCn2c(C)nc3cnc(-c4ccccc4C(F)(F)F)c(C#N)c3c2=O)c2scc(C(=O)O)c2n1
> 7.30

###

Hi there, I'd appreciate the recorded IC50 for every entry that follows.
# target-or-test-system: recombinant eIF4E (Homo sapiens (Human))
# method-notes: Fluorescence polarization competition assay for eIF4E binding potency
# measurement-context: fluorescence polarization competition, 75 nM recombinant eIF4E, 20 nM EDA-m7GDP-ATTO-550; IC50 class; read-out: elF4E FP

So what does the record say about IC50 for Cc1cc(-c2cc(Cl)ccc2OCCn2c(C)nc3cc(C(F)(F)F)c(-c4cc(F)cnc4C)c(C#N)c3c2=O)c2scc(C(=O)OCCN3CCCC3)c2n1 ?
> 1000 nM

Would you mind doing Cc1nc2c(S(=O)(=O)N(C)C)ccc(C#N)c2c(=O)n1CCOc1ccc(Cl)cc1-c1ccnc2c(C(=O)O)csc12 as well?
50 to 1000 nM

And then Cc1nc2cc(C(F)(F)F)c(N3CCN(CCO)CC3)c(C#N)c2c(=O)n1CCOc1ccc(Cl)cc1-c1ccnc2ccsc12 , what is it?
< 50 nM

Now try CCc1cc(-c2cc(Cl)ccc2OCCn2c(C)nc3c(Cl)nc(C4CC4)c(C#N)c3c2=O)c2scc(C(=O)O)c2n1 .
< 50 nM

What about Cc1cc(-c2cc(Cl)ccc2OCCn2c(C)nc3cc(C(F)(F)F)cnc3c2=O)c2scc(C(=O)O)c2n1 ?
< 50 nM

Try N#Cc1cc2c(=O)n(CCOc3ccc(Cl)cc3-c3cc(C(=O)O)c(F)c(F)c3F)cnc2cn1 next.
> 1000 nM

###

# target-or-test-system: recombinant eIF4E (Homo sapiens (Human), UniProt P06730)
# method-notes: Fluorescence polarization competition assay for eIF4E binding potency
# measurement-context: inhibition of eIF4E/EDA-m7GDP-ATTO-550 binding; calculated IC50 values, Table 4B; read-out: IC50
measured-quantity: IC50 (nM)
Give the quantity in nM, number only.

# lookup: IC50 of Cc1nc2cnc(N(C)C3CCN(CC4(C(F)(F)F)CCC4)CC3)c(C#N)c2c(=O)n1CC#Cc1ccc(Cl)cc1-c1ccnc2c(C(=O)O)csc12
26.4

And what about the molecule Cc1nc2cnc(N3CC4(C3)CN(C3COC3)C4)c(C#N)c2c(=O)n1CC#Cc1ccc(Cl)cc1-c1ccnc2c(C(=O)O)csc12 ?
11.2

Also Cc1nc2cnc(N3CCN4CCC3C4)c(C#N)c2c(=O)n1CCOc1ccc(Cl)cc1-c1ccnc2c(C(=O)O)csc12 (stereo not shown) , if possible.
12.2

What about this molecule? Cc1cc(-c2cc(Cl)ccc2OCCn2c(C)nc3cc(C(F)(F)F)c(N(C)C)c(C#N)c3c2=O)c2scc(C(=O)O)c2n1
31.6
